# Target: OAT2 (Solute carrier family 22 member 7) (Homo sapiens, UniProt Q9Y694)
# Run Description: TP_TRANSPORTER: inhibition of PGF2alpha uptake (PGF2alpha: 0.005 uM, AZT: 1000 uM) in OAT2-expressing S2 cells
# Format: functional, cell-based
# Design: scale not given: the % may be the effect or the level left
# Test Parameters: probe PGF2alpha, read-out: Activity
Measured Parameter: activity at 1000 µM (%)
Please reply with the bare figure in % and do not write the unit itself.

INPUT: Need activity at 1000 µM of Cc1cn([C@H]2C[C@H](N=[N+]=[N-])[C@@H](CO)O2)c(=O)[nH]c1=O [ZIDOVUDINE] , thanks.
OUTPUT: 76.7

---

# Target: OAT3 (Organic anion transporter 3) (Homo sapiens, UniProt Q8TCC7)
# Sequence (Q8TCC7 whole entry): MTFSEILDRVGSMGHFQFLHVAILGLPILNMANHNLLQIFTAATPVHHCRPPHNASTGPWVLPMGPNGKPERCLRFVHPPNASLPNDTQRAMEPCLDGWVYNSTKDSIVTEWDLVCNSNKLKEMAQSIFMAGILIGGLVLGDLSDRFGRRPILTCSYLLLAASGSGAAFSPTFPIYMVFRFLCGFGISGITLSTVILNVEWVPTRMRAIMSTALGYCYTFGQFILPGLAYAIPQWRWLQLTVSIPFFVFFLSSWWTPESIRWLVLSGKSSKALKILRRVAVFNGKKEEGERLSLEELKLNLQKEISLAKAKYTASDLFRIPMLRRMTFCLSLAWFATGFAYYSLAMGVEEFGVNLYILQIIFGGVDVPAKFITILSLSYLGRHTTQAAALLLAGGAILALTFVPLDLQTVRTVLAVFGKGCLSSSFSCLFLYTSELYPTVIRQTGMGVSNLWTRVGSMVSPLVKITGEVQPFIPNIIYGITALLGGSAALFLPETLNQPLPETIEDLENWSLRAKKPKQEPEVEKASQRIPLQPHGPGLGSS
# Run Description: TP_TRANSPORTER: inhibition of E1S uptake (E1S: 0.05 uM, AZT: 1000 uM) in OAT3-expressing S2 cells
# Format: functional, cell-based
# Design: scale not given: the % may be the effect or the level left
# Test Parameters: mouse, probe E1S, read-out: Activity
Measured Parameter: activity at 1000 µM (%)
Please reply with the bare figure in % and do not write the unit itself.

INPUT: Request: activity at 1000 µM, test system OAT3 (Organic anion transporter 3) (Homo sapiens, UniProt Q8TCC7), entry Cc1cn([C@H]2C[C@H](N=[N+]=[N-])[C@@H](CO)O2)c(=O)[nH]c1=O [ZIDOVUDINE]
OUTPUT: 70

---

# Target: UniProt Q8TCC7
# Run Description: TP_TRANSPORTER: inhibition of E1S uptake (E1S: 0.05 uM, GCV: 1000 uM) in OAT3-expressing S2 cells
# Format: functional, cell-based
# Design: scale not given: the % may be the effect or the level left
# Test Parameters: mouse, probe E1S, read-out: Activity
Measured Parameter: activity at 1000 µM (%)
Please reply with the bare figure in % and do not write the unit itself.

INPUT: Need activity at 1000 µM of "Nc1nc(O)c2ncn(COC(CO)CO)c2n1" , thanks.
OUTPUT: 74.3

---

# Target: UniProtKB Q9NSA0
# Sequence (Q9NSA0 whole entry): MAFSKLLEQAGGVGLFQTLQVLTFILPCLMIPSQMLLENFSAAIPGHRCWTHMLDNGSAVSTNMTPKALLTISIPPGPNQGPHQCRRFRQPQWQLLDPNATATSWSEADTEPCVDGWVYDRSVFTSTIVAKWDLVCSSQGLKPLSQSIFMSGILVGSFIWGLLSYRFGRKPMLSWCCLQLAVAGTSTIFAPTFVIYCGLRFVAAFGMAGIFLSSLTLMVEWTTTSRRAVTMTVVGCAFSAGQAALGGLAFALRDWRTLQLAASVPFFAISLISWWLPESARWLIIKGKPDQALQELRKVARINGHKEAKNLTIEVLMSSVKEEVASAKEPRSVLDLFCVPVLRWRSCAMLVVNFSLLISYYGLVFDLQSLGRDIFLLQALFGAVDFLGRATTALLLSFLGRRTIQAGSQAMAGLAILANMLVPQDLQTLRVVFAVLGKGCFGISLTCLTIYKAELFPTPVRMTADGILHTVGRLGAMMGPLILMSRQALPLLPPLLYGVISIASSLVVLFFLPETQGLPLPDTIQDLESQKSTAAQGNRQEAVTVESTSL
# Run Description: TP_TRANSPORTER: uptake in OAT4-expressing S2 cells
# Assay type: functional, cell-based
Measured Parameter: Km

INPUT: Request: Km, test system UniProtKB Q9NSA0, entry "Cc1cn([C@H]2C[C@H](N=[N+]=[N-])[C@@H](CO)O2)c(=O)[nH]c1=O"
OUTPUT: 152 µM

---

# Target: OAT1 (Solute carrier family 22 member 6) (Homo sapiens)
# Run Description: TP_TRANSPORTER: inhibition of PAH uptake (PAH: 5 uM, GCV: 1000 uM) in OAT1-expressing S2 cells
# Format: functional, cell-based
# Design: scale not given: the % may be the effect or the level left
# Test Parameters: mouse, probe PAH, read-out: Activity
Measured Parameter: activity at 1000 µM

INPUT: Need activity at 1000 µM of Nc1nc(O)c2ncn(COC(CO)CO)c2n1 [GANCICLOVIR] , thanks.
OUTPUT: 87.1%

---

# Target: OAT1 (Solute carrier family 22 member 6) (Homo sapiens, UniProt Q4U2R8)
# Sequence (Q4U2R8 whole entry): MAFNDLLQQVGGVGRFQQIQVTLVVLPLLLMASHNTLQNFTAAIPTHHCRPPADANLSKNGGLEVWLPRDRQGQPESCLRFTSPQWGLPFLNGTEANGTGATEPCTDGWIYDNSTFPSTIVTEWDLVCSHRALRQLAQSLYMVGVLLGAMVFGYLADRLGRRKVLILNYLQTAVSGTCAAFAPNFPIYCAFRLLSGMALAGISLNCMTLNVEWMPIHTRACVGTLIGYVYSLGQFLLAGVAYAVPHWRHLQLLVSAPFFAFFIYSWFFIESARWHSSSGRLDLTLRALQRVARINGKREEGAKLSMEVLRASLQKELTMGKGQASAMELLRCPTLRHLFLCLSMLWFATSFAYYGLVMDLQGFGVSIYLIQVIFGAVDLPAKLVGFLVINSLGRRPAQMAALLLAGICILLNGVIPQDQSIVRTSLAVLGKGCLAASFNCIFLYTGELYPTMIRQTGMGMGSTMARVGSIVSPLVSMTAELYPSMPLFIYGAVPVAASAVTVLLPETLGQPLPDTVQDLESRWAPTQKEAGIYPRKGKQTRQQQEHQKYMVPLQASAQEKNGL
# Run Description: TP_TRANSPORTER: inhibition of PAH uptake (PAH: 5 uM, AZT: 1000 uM) in OAT1-expressing S2 cells
# Type: functional, cell-based
# Design: scale not given: the % may be the effect or the level left
# Test Parameters: mouse, probe PAH, read-out: Activity
Measured Parameter: activity at 1000 µM (%)
Please reply with the bare figure in % and do not write the unit itself.

INPUT: Request: activity at 1000 µM, test system OAT1 (Solute carrier family 22 member 6) (Homo sapiens, UniProt Q4U2R8), entry "Cc1cn([C@H]2C[C@H](N=[N+]=[N-])[C@@H](CO)O2)c(=O)[nH]c1=O"
OUTPUT: 30.7

---

# Target: OAT2 (Solute carrier family 22 member 7) (Homo sapiens)
# Sequence (Q9Y694 whole entry): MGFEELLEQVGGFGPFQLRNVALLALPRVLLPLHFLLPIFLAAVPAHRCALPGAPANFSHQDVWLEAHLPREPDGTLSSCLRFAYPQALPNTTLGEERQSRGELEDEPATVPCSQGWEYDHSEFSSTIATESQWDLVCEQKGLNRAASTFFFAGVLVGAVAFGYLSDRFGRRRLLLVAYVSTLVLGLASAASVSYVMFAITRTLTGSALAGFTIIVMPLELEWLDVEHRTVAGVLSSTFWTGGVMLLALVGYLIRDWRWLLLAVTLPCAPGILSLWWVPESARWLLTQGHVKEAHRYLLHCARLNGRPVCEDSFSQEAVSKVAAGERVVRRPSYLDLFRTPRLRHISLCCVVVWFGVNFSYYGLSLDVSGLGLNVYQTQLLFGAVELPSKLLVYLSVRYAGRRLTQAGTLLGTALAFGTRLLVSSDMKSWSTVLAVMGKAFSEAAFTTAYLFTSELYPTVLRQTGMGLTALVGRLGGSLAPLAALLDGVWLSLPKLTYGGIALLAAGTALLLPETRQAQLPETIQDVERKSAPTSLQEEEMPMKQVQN
# Run Description: TP_TRANSPORTER: uptake in OAT2-expressing S2 cells
# Type: functional, cell-based
Measured Parameter: Km (µM)
Please reply with the bare figure in µM and do not write the unit itself.

INPUT: Request: Km, test system OAT2 (Solute carrier family 22 member 7) (Homo sapiens), entry Cc1cn([C@H]2C[C@H](N=[N+]=[N-])[C@@H](CO)O2)c(=O)[nH]c1=O [ZIDOVUDINE]
OUTPUT: 26.8

---

# Target: OCT1 (Solute carrier family 22 member 1) (Homo sapiens, UniProt O15245)
# Sequence (O15245 whole entry): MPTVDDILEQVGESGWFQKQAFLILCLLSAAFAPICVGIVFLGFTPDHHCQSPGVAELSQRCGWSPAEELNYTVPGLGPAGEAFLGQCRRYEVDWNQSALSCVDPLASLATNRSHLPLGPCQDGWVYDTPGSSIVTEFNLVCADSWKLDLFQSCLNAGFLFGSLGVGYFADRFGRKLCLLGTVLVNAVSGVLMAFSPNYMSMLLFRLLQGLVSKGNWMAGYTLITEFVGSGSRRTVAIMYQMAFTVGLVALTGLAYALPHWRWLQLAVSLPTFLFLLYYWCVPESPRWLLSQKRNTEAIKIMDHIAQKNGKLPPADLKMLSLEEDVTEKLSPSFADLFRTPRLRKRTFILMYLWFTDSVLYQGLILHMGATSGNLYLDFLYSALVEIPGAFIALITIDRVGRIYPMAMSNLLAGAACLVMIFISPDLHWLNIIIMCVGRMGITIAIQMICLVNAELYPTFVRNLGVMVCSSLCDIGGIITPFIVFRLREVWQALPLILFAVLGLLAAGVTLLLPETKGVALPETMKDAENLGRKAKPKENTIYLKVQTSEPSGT
# Run Description: TP_TRANSPORTER: inhibition of TEA uptake (TEA: 5 uM, GCV: 1000 uM) in OCT1-expressing S2 cells
# Assay type: functional, cell-based
# Set-up: scale not given: the % may be the effect or the level left
# Test Parameters: probe TEA, read-out: Activity
Measured Parameter: activity at 1000 µM (%)
Please reply with the bare figure in % and do not write the unit itself.

INPUT: Need activity at 1000 µM of Nc1nc(O)c2ncn(COC(CO)CO)c2n1 [GANCICLOVIR] , thanks.
OUTPUT: 88.3

---

# Target: OAT3 (Organic anion transporter 3) (Homo sapiens, UniProt Q8TCC7)
# Sequence (Q8TCC7 whole entry): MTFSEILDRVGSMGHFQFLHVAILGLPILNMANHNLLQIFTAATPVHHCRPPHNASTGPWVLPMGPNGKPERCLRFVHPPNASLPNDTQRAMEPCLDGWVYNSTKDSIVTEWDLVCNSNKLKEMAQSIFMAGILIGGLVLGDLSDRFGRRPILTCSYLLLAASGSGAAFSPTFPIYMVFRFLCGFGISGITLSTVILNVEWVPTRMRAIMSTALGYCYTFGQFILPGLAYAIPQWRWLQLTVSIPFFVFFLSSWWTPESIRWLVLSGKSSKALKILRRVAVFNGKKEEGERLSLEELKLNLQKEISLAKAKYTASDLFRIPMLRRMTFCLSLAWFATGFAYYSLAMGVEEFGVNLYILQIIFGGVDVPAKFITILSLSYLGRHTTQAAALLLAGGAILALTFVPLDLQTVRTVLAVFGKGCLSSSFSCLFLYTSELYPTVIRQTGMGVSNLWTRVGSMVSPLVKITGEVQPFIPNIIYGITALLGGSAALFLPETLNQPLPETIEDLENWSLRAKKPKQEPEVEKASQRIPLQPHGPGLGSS
# Run Description: TP_TRANSPORTER: uptake in OAT3-expressing S2 cells
# Assay type: functional, cell-based
# Test Parameters: mouse
Measured Parameter: Km (µM)
Please reply with the bare figure in µM and do not write the unit itself.

INPUT: Need Km of Cc1cn([C@H]2C[C@H](N=[N+]=[N-])[C@@H](CO)O2)c(=O)[nH]c1=O [ZIDOVUDINE] , thanks.
OUTPUT: 145
